# TESTED SYSTEM: T1, Human PD-L1-HIS (human, UniProt Q9NZQ7 19-238)
# T1 construct: also called HIS-tagged monovalent PD-L1; His-tagged human PD-L1; not shown: His tag
# T1 sequence (Q9NZQ7 19-238 limits assumed): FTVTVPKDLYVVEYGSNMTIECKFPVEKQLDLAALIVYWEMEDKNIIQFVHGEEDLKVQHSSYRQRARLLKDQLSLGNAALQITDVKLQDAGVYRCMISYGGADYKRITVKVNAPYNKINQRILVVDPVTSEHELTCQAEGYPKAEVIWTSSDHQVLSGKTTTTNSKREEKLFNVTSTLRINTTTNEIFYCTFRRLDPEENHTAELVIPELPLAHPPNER
# METHOD SUMMARY: ForteBio, IgG, monovalent
MEASURED PARAMETER: Kd (nM)
Quick reminder: number only, in nM, skip the unit.

In: Return Kd (reported value) for this binder: BiPDL4-34 (antibody, V domains shown, Fourth generation, IgG) VH: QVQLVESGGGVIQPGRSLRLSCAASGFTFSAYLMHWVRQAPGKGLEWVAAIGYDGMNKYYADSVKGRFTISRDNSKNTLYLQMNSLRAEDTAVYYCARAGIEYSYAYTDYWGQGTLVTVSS VL: EIVLTQSPGTLSLSPGERATLSCRASQFVYSSDLAWYQQKPGQAPRLLIYGASARAAGIPDRFSGSGSGTDFTLTISRLEPEDFAVYYCMQFGWWPPRTFGGGTKVEIK
Out: 6.85
